Can you tell me pIC50 for the items I'm about to list?
Molecular target: human GPR84 receptor (Homo sapiens, UniProt Q9NQS5)
Construct: frozen aliquots prepared by acCELLerate
Sequence (Q9NQS5 whole entry): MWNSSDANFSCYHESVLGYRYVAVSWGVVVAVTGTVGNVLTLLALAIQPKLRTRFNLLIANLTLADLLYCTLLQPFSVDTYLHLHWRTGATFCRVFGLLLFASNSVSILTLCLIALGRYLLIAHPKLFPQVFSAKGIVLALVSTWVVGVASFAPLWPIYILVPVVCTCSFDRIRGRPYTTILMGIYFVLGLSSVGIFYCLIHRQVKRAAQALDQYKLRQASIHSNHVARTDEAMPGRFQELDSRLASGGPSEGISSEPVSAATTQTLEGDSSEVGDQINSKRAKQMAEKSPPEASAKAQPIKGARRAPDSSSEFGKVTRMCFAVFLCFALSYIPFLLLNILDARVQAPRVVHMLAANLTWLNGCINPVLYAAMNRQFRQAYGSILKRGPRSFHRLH
Test: cAMP HTRF assay for identification of cellular GPR84 antagonists
Conditions: CHO-K1 cells stably expressing human GPR84; Forskolin plus agonist 6-OAU; cAMP HTRF readout; average or median values
Please note pIC50 is a logarithmic value: minus log10 of concentration in mol/L. Answer with that number alone.

For the compound shown here, Cc1c(C(=O)NCCN2CCOCC2)oc2c1-c1nn(Cc3ccc(Cl)cc3)cc1CC2 [Example 55] , give the reported pIC50. 5.38

For the compound shown here, Cc1ccccc1Cn1cc2c(n1)-c1c(oc(C(=O)NCc3ccon3)c1C)CC2 [Example 8] , give the reported pIC50. 6.62

For the compound shown here, Cc1c(C(=O)NCCN2CCCCC2)oc2c1-c1nn(Cc3cccc(Cl)c3)cc1CC2 [Example 19] , give the reported pIC50. 6.11

---

Biological target: human GPR84 receptor (Homo sapiens)
Construct: frozen aliquots prepared by acCELLerate
Test: cAMP HTRF assay for identification of cellular GPR84 antagonists
Settings: CHO-K1 cells stably expressing human GPR84; Forskolin plus agonist 6-OAU; cAMP HTRF readout; average or median values
Rule: measured IC50 below 3000 nM gets Criterion met; anything equal to or greater than 3000 nM gets Criterion not met.

In plain terms, does `Cc1c(C(=O)N2CCC[C@H]2C(N)=O)oc2c1-c1nn(Cc3ccc(Cl)cc3)cc1CC2` come in under 3000 nM for IC50? Criterion not met

In plain terms, does `Cc1ccc(Cn2cc3c(n2)-c2c(oc(C(=O)NC[C@@H]4CCCO4)c2C)CC3)cc1` come in under 3000 nM for IC50? Criterion met

In plain terms, does `Cc1c(C(=O)NCc2nccs2)oc2c1-c1nn(Cc3ccc(Cl)cc3)cc1CC2` come in under 3000 nM for IC50? Criterion met

In plain terms, does `Cc1c(C(=O)NCc2ccon2)oc2c1-c1nn(Cc3ccc(Cl)cc3)cc1CC2` come in under 3000 nM for IC50? Criterion met

In plain terms, does `CC(=O)N1CCN(C(=O)c2oc3c(c2C)-c2nn(Cc4ccc(Cl)cc4)cc2CC3)CC1` come in under 3000 nM for IC50? Criterion not met

In plain terms, does `Cc1c(C(=O)N(C)Cc2ncc[nH]2)oc2c1-c1nn(Cc3ccc(Cl)cc3)cc1CC2` come in under 3000 nM for IC50? Criterion not met

In plain terms, does `Cc1c(C(=O)N(C)Cc2ccn(C)n2)oc2c1-c1nn(Cc3ccc(Cl)cc3)cc1CC2` come in under 3000 nM for IC50? Criterion not met

In plain terms, does `Cc1ccc(CNC(=O)c2oc3c(c2C)-c2nn(Cc4ccc(Cl)cc4)cc2CC3)cc1` come in under 3000 nM for IC50? Criterion met

In plain terms, does `Cc1c(C(=O)NCc2ccn(C)n2)oc2c1-c1nn(Cc3ccc(Cl)cc3)cc1CC2` come in under 3000 nM for IC50? Criterion met

In plain terms, does Cc1c(C(=O)NCC2CCCO2)oc2c1-c1nn(Cc3cccc(Cl)c3)cc1CC2 (single isomer, unassigned) [Example 15-2] come in under 3000 nM for IC50? Criterion met

In plain terms, does `Cc1c(C(=O)N(C)Cc2ccncc2)oc2c1-c1nn(Cc3ccc(Cl)cc3)cc1CC2` come in under 3000 nM for IC50? Criterion not met
